Literature survey of pIC50 (system: Coagulation factor XI (Homo sapiens)).
pIC50: −log10 of the molar value.
pIC50 below 8 gives condition not met; pIC50 at or above it gives condition met.

compound: O=C(Cn1c2c(c(-c3cc(Cl)ccc3Cl)cc1=O)C(=O)CC2)Nc1ccc(C(=O)O)cc1
measured target: Coagulation factor XI (Homo sapiens)
qualitative label: condition not met
//
compound: Cc1ccc(Cl)c(F)c1-c1cncc(C(=O)Nc2cnn(C(C)c3cnc(N4C[C@H]5C[C@H]5C4=O)nc3C)c2)n1 (single isomer, unassigned)
measured target: Coagulation factor XI (Homo sapiens)
qualitative label: condition not met
//
compound: CC[C@@H](NC(=O)N1C(=O)[C@H](Cc2cc(C)nc(NC)c2)[C@H]1C(=O)N(C)c1nccn1C)c1cccc(Cl)c1
measured target: Coagulation factor XI (Homo sapiens)
qualitative label: condition met
//
compound: CC(c1cnc(N2CC3CC3C2=O)nc1)n1cc(NC(=O)c2cncc(-c3c(C(F)(F)F)ccc(Cl)c3F)n2)cn1 (single isomer, unassigned)
measured target: Coagulation factor XI (Homo sapiens)
qualitative label: condition not met
//
compound: CC(n1ncc(C(=O)N2CCC[C@@]3(C2)OC(=O)Nc2ccc(Cl)c(F)c23)c1N)C(F)(F)F (single isomer, unassigned)
measured target: Coagulation factor XI (Homo sapiens)
qualitative label: condition not met

*Q* // inclusive: pIC50 at least 8? input: CCNC(=O)c1ccc(NC(=O)C(CCOC2(C)CCC2)n2cc(OC)c(-c3cc(Cl)ccc3OCC(F)(F)F)cc2=O)cn1 (racemic)
*A* condition not met

*Q* Exam item: decide whether the reported pIC50 for `CN(C(=O)[C@@H]1[C@@H](Cc2ccnc(N)c2)C(=O)N1C(=O)NC(c1ccccc1)c1ccccc1)c1ccncc1` is at least 8.
*A* condition met

*Q* Determine whether this compound has pIC50 no lower than 8: NC(=O)c1ccc(NC(=O)[C@H](C[C@@H]2CCCCO2)n2cc3c(cc2=O)-c2cc(Cl)ccc2C[C@@H](C(F)(F)F)OC3)cc1 (single isomer, unassigned)
*A* condition met

*Q* Reported pIC50 at or above 8? `CC[C@@H](NC(=O)N1C(=O)[C@H](Cc2ccnc(N)c2)[C@H]1C(=O)N(C)c1ccn(C)n1)c1ccc(C)c(F)c1F`
*A* condition met

*Q* Is the recorded value of pIC50 equal to or greater than 8 for this compound? Cc1cc(C(=O)NC(C)C)ccc1-c1ccc(C[C@H](NC(=O)C2CCC(CN)CC2)C(=O)Nc2ccc3cn[nH]c3c2)cc1 (single isomer, unassigned; enantiomer 2)
*A* condition met

---

Record: compiled IC50 on Coagulation factor XI (Homo sapiens, UniProt P03951) from multiple reports.
One number for each entry, in nM.

molecule: CNC(=O)c1ccc(NC(=O)C(C[C@H](C)OC)n2cc(OC)c(-c3cc(Cl)ccc3OCC(F)(F)F)cc2=O)cn1 (mixture of isomers)
IC50, nM: 6.2

Working through the 8 molecules below one at a time, give IC50 for each.
1. C[C@H](c1cnc(N2CCC2)nc1)n1cc(NC(=O)c2cncc(-c3c(C(F)F)ccc(Cl)c3F)n2)cn1 (single isomer, unassigned)
2. Cc1ccc(-n2ncc(C(=O)N3CCC[C@@]4(C3)OC(=O)Nc3ccc(Cl)c(F)c34)c2N)c(F)c1
3. C[C@]1(O)CC[C@@H](CC(C(=O)Nc2ccc(C(=O)O)cc2)c2ccc(-c3c(OC(F)F)ccc(Cl)c3F)c[n+]2[O-])CC1 (single isomer, unassigned)
4. Cn1ccnc1-c1ccc(NC(=O)[C@@H]2CCC3CC(c4c(-n5cnnn5)ccc(Cl)c4F)=CC(=O)N32)cc1 (mixture of isomers)
5. O=C(Nc1ccc(-c2nc(=O)o[nH]2)cc1)[C@@H]1CCC2CC(c3c(OCC(F)(F)F)ccc(Cl)c3F)=CC(=O)N21 (mixture of isomers)
6. Cc1cc(C(C)n2cc(NC(=O)c3nc(-c4c(OC(F)F)ccc(Cl)c4F)cnc3COC(C)(C)C)cn2)cnc1N1C[C@H]2C[C@H]2C1=O (mixture of isomers)
7. COc1cn(C(Cc2cc(C)no2)C(=O)Nc2ccc(C(N)=O)nc2)c(=O)cc1-c1cc(Cl)ccc1F (stereo not drawn)
8. Cc1ncc(-c2c(C(F)F)ccc(Cl)c2F)nc1C(=O)Nc1cnn(C(C)c2cnc(N3C[C@H]4C[C@H]4C3=O)c(C)n2)c1 (single isomer, unassigned)

*A*
1320
242
3.2
58.4
30.8
602
390
550
